Give IC50 for every item shown.
Target: Human STING (residues 140-379, H232R) (Homo sapiens (Human), UniProt Q86WV6, H232R)
Sequence (Q86WV6 140-379 H232R): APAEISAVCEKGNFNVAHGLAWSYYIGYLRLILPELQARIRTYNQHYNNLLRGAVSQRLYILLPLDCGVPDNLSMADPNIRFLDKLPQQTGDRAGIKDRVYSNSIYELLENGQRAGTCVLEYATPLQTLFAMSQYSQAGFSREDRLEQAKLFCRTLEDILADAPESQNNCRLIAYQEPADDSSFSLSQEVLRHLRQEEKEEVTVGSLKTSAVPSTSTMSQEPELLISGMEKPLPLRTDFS
Test: Human STING TR-FRET Assay
Conditions: read-out: Enz-TR-Fret IC50, fluorescein labeled ligand 100 nM, STING protein 100 nM, 60 minutes at rt

Here's what some known entries look like.
Molecule: Nc1nc2c(ncn2[C@@H]2O[C@@H]3COP(=O)(O)O[C@H]4C[C@H](Nc5ncncn5)C[C@@H]4COP(=O)(O)O[C@@H]2[C@@H]3O)c(=O)[nH]1 [Compound I-27]
IC50: < 1 µM
//
Molecule: Nc1nc2c(ncn2[C@@H]2O[C@@H]3COP(=O)(O)O[C@@H]4[C@@H](COP(=O)(S)O[C@@H]2[C@@H]3F)C[C@@H](Nc2ccncn2)[C@@H]4F)c(=O)[nH]1 (stereo partly drawn) [Compound I-24a]
IC50: < 1 µM

Proceeding to the next molecule to report its IC50.
Incoming: // returns reported IC50 for input Nc1nc2c(ncn2[C@@H]2O[C@@H]3COP(=O)(S)O[C@@H]4[C@@H](COP(=O)(S)O[C@@H]2[C@@H]3O)C[C@@H](Oc2ccncn2)[C@@H]4F)c(=O)[nH]1 (single isomer, unassigned) [Compound I-39a]
Outgoing: < 1 µM
